System: HCT-116 colon
Test method notes: NCI-60 one-dose screen, 48 h
Particulars: 10 µM unless noted
Compounds without any hit were thinned out: in the full panel of roughly 83,000, 20% have a hit. Activity calls are given as the source filed them. Rule for the calls: active = growth percent below 10; inactive = the rest.
Would you mind answering with one of these outcomes? 1.0 = active, 0.0 = inactive

Compound	Discrete label
Cc1c(N)nc([C@H](CC(N)=O)NC[C@H](N)C(N)=O)nc1C(=O)N[C@H](C(=O)N[C@H](C)[C@@H](O)[C@H](C)C(=O)N[C@H](C(=O)NCCc1nc(-c2nc(C(=O)NCCC[S+](C)C)cs2)cs1)[C@@H](C)O)C(OC1OC(CO)C(O)C(O)C1OC1OC(CO)C(O)C(OC(N)=O)C1O)c1cnc[nH]1 (stereo partly drawn)	0.0
CC[C@](O)(C(=O)O)c1cc2n(c(=O)c1CO)Cc1cc3ccccc3nc1-2	1.0

API: the following record is the query input.
Request: // return assay outcome for CO[C@H](/C(C)=C/C=C/C(C)=C/c1coc(C)n1)[C@H](C)[C@H]1C[C@@H](O)[C@@]2(C)O[C@H]2/C=C/[C@@H](C)[C@@H]2C[C@@H](CC(=O)O2)C[C@H]2O[C@@H]2C(=O)O1
Response: 1.0

====

System: MALME-3M melanoma
Test method notes: NCI-60 one-dose screen, 48 h (100 = growth as untreated, 0 = no growth, -100 = all killed)
Particulars: 10 µM unless noted
This is part of a sample that, as a whole, favours compounds with a hit. Of some 83,000 tested, about 20% had one in any assay. Active and inactive are the calls of the source. Rule for the calls: active = growth percent below 10; inactive = the rest.
List of growth values.

Molecular string	Measurement type	Test value
CO[C@H](/C(C)=C/C=C/C(C)=C/c1coc(C)n1)[C@H](C)[C@H]1C[C@@H](O)[C@@]2(C)O[C@H]2/C=C/[C@@H](C)[C@@H]2C[C@@H](CC(=O)O2)C[C@H]2O[C@@H]2C(=O)O1	growth	15.2% (inactive)

Request: Query: growth; subject: CC[C@](O)(C(=O)O)c1cc2n(c(=O)c1CO)Cc1cc3ccccc3nc1-2
Response: -38.2% (active)

Request: Query: growth; subject: C[C@H]1CCC/C=C/[C@@H]2C[C@H](O)C[C@H]2[C@H](O)/C=C/C(=O)O1
Response: -73% (active)

====

Tested on: EKVX NSCLC
Test method notes: NCI-60 one-dose screen, 48 h (100 = growth as untreated, 0 = no growth, -100 = all killed)
Particulars: 10 µM unless noted
About 83,000 compounds went through this panel and 20% of them were active in at least one assay; those are over-represented in the sample as a whole.
Measurement type: growth (%)
The reply should contain only the number, in %.

Compound	Target entity	Measurement type	Units symbol	Test value
CC[n+]1c(-c2ccccc2)c2cc(N)ccc2c2ccc(N)cc21	EKVX NSCLC	growth	%	1.88
C[C@]12CC[C@H](O)CC1=CC[C@@H]1[C@@H]2CC[C@]2(C)C(=O)CC[C@@H]12	EKVX NSCLC	growth	%	85.7
CN1CCN(c2ccc([N+](=O)[O-])c3no[n+]([O-])c23)CC1	EKVX NSCLC	growth	%	-34.4
O=C1c2ccccc2C(=O)C(Cl)C1Cl (centres undefined)	EKVX NSCLC	growth	%	-79.6
CC1=C2C(=O)[C@H]3[C@@H](CC=C4C[C@@H](O)CC[C@@]43C)[C@@H]2CC[C@]12O[C@@H]1C[C@H](C)CN[C@H]1[C@H]2C	EKVX NSCLC	growth	%	94.3
CC[C@@]1(O)C(=O)OCc2c1cc1n(c2=O)Cc2cc3ccccc3nc2-1	EKVX NSCLC	growth	%	13.5

Request: Query: growth; subject: CCC(=O)OC1CCn2c1nc1c2C(=O)C(C)=C(N2CC2)C1=O (centres undefined)
Response: 8.46

Request: Query: growth; subject: CO[C@H](/C(C)=C/C=C/C(C)=C/c1coc(C)n1)[C@H](C)[C@H]1C[C@@H](O)[C@@]2(C)O[C@H]2/C=C/[C@@H](C)[C@@H]2C[C@@H](CC(=O)O2)C[C@H]2O[C@@H]2C(=O)O1
Response: 39.6

Request: Query: growth; subject: CCCCCCCCCCCC1CCCC(C)N1 (centres undefined)
Response: 91.2

Measured values drawn from PubChem BioAssay (NCI) for this set.
